Tested on: PC-3 prostate
Assay: NCI tumour cell line growth inhibition, 48 h
Where a SMILES comes first, the peptide text is derived from it. The star is where a group is joined. Boc = CC(C)(C)OC(=O)*
Measure: TGI

In plain terms, Cn1c2ccccc2c2c(-c3ccccc3)[n+]3ccccc3nc21 has a documented TGI of > 100 µM

In plain terms, COc1cc(O)c2c(O)c3c(c4c2c1[C@]1(C4)C(C)=CCCC1(C)C)[C@H](O)[C@@]1(O)CC(=O)C(C(N)=O)=C(O)[C@@]1(O)C3=O has a documented TGI of 0.834 µM

In plain terms, COc1cc2nc(-c3cnc(N(C)C)nc3)nc(NC3CCN(Cc4ccccc4)CC3)c2cc1OC has a documented TGI of 3.09 µM

In plain terms, COc1cc(N=CN(C)C)c2ncccc2c1 has a documented TGI of > 100 µM

In plain terms, OC(c1nc2ccccc2s1)(C(F)(F)F)C(F)(F)F has a documented TGI of > 100 µM

In plain terms, CC(NC(=O)C(NC(=O)OC(C)(C)C)C(C)C)C(=O)N1CCCC1C(=O)NCC(=O)NC(C(=O)NCC(=O)O)C(C)C (centres undefined) (Boc-VAPGVG-OH; configuration not given here) has a documented TGI of > 100 µM

In plain terms, O=C(O)CN1CCNCCN(CP(=O)(O)O)CC1 has a documented TGI of > 100 µM

In plain terms, CC(=O)OC1CCN(C(=O)c2ccccc2)CC1CC1(c2cc3ccccc3[nH]2)OCCO1 (centres undefined) has a documented TGI of > 100 µM

In plain terms, Oc1ccc2cc(Br)ccc2c1-c1c(O)ccc2cc(Br)ccc12 has a documented TGI of 13 µM

----------
Tested on: SK-MEL-2 melanoma
Test: NCI tumour cell line growth inhibition, 48 h
Measure: GI50

The recorded GI50 with SK-MEL-2 melanoma for C[C@@H]1CN(C(=O)c2ccc(NC(=O)c3cc(O[C@H](C)c4c(Cl)ccc(F)c4Cl)c(N)nn3)cc2)C[C@H](C)N1 was 5.57 µM

The recorded GI50 with SK-MEL-2 melanoma for Oc1ccc2cc(Br)ccc2c1-c1c(O)ccc2cc(Br)ccc12 was 3.82 µM

The recorded GI50 with SK-MEL-2 melanoma for COC(=O)Nc1nc2ccc(Oc3ccc(NC(=O)Nc4cccc(C(=O)O)c4)cc3)cc2[nH]1 was 9.24 µM

The recorded GI50 with SK-MEL-2 melanoma for CC(C)(C)NC(C1=CC(C)(C)c2ccccc2C1=O)c1ccccc1 (centres undefined) was 1.49 µM

----------
Kindly supply the reported TGI values for the records listed here.
System: M14 melanoma
Assay: NCI tumour cell line growth inhibition, 48 h
Kindly provide the numeric value in µM only, without the unit symbol.

In plain terms, COc1cc2nc(-c3cnc(N(C)C)nc3)nc(NC3CCN(Cc4ccccc4)CC3)c2cc1OC has a documented TGI of 3.06

In plain terms, C/C=C(\C)C(=O)N[C@H]1CC[C@]2(C)C3CC[C@@]4(C)C(CC[C@@H]4C(C)N(C)C)C3CCC2[C@H]1OC(C)=O (stereo not given in full) has a documented TGI of 3.69

In plain terms, O=C1/C(=C/c2cccnc2)C(n2cccc2)c2c(Br)sc(Br)c21 (stereo not given) has a documented TGI of 4.85

In plain terms, CC(=N/NC(=S)N1CCCCC1)/C(=N\NC(=S)N1CCCCC1)c1ccccc1 has a documented TGI of 3.64
